B1: TPR t1 (parent)
chain: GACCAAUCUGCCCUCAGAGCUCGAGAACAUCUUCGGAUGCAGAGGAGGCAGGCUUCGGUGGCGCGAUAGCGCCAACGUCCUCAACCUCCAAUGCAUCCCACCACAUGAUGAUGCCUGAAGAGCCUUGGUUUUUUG

- Variants of: B1
- experimentSummary: polymerase ribozyme fitness, log enrichment relative to wild type (log ratio); higher = more active; in vitro selection for triplet polymerase activity
Listed next: entries and their corresponding polymerase ribozyme fitness (log ratio).
experimentalEndpoint: polymerase ribozyme fitness (log ratio)

mutationCode: C98U U116A A119G
quantitativeResult: -0.385

mutationCode: C34A C101G U129A
quantitativeResult: -4.66

mutationCode: A6C G36A A66G C72G C76U U78A
quantitativeResult: -4.1

mutationCode: A43G A103C A119G A121G G122U G135U
quantitativeResult: -4.67

mutationCode: G10U G19C A37U C72A C73U C123G U130C
quantitativeResult: -2.79

mutationCode: G36U C53G C56A C72G
quantitativeResult: -3.23

mutationCode: C3G G60C C86A
quantitativeResult: -2.81

mutationCode: G45C U55G G69U G107A
quantitativeResult: -5.92

mutationCode: C72U U106C
quantitativeResult: -0.313

mutationCode: G58C A111C U112C
quantitativeResult: -0.0453

mutationCode: A6U G113U
quantitativeResult: -2.09

mutationCode: A6C A50C U59C C72U U92G
quantitativeResult: -4.39

mutationCode: C49U U81A C89A
quantitativeResult: -4.05

mutationCode: G39C G69C
quantitativeResult: -2.22

mutationCode: C49U G69U A121C
quantitativeResult: 1.51

mutationCode: A27G C72U
quantitativeResult: -1.76

mutationCode: G63U U78G
quantitativeResult: -3.12

mutationCode: C4G C20U G48C G63A C123G
quantitativeResult: -2.25

mutationCode: U21G G36A
quantitativeResult: -2.46

mutationCode: G48U C56G C72U C86G
quantitativeResult: -2.89

mutationCode: C3G A6C C49A C53U G61C C97U C101U
quantitativeResult: -3.42

mutationCode: U78C U87G U126A
quantitativeResult: -2.18

mutationCode: C13A C72U A83C A84G U112C
quantitativeResult: -1.46

mutationCode: G44A G122A G128C
quantitativeResult: -3.84

mutationCode: A27G C49U
quantitativeResult: -2.19

mutationCode: C3A G48A C72U A84G
quantitativeResult: -1.58

mutationCode: C72A G107U
quantitativeResult: -3.81

mutationCode: G42U C72G C94U G120U U131A
quantitativeResult: -2.67

mutationCode: G69U C79U
quantitativeResult: -0.838

mutationCode: U81A A91U C101U
quantitativeResult: -3.43

mutationCode: C34A G44C G69U C88A A91C G110A
quantitativeResult: -4.87

mutationCode: A18C A29U
quantitativeResult: -4.04

mutationCode: U87A C88A G110U G127A
quantitativeResult: -3.99

mutationCode: G52C C82A U112G
quantitativeResult: -1.29

mutationCode: G35U G61A C98G G107C C115A G120A
quantitativeResult: -7.51

mutationCode: C3G C11A G36C C64U
quantitativeResult: -3.94

mutationCode: C8G G63A G127C
quantitativeResult: -1.12

mutationCode: U9G G48A G93C
quantitativeResult: -1.01

mutationCode: C49G C56A C94U A111G
quantitativeResult: -1.5

mutationCode: G52C U125G
quantitativeResult: -1.59

mutationCode: A6U U9C U55C A75G A95C G110A
quantitativeResult: -1.37

mutationCode: A26U G52A
quantitativeResult: -4.18

mutationCode: A83C C114G U132A
quantitativeResult: -2.52

mutationCode: A5U A6C G63U
quantitativeResult: -1.11

mutationCode: G10U C73G
quantitativeResult: -0.976

mutationCode: U109A U132C
quantitativeResult: -5.12
